# procedure summary: qHTS assay for small molecule disruptors of the mitochondrial membrane potential - 1 hr assay (AID 651754); note: nearly all actives have a fitted effect of over 35% in size
# conditions used: series mostly up to 92.2 µM
Inconclusive results are not listed. Active and inactive are the calls of the source. Calls come from the whole dose curve.
Give one outcome, nothing more. List: 1.0 = active, 0.0 = inactive

Illustrative cases are given below, each with its answer.
[
  {
    "molecule": "NCCNc1cccc2ccccc12",
    "class": 0.0
  },
  {
    "molecule": "COc1cc([C@H]2Oc3cc([C@H]4Oc5cc(O)cc(O)c5C(=O)[C@@H]4O)ccc3O[C@@H]2CO)ccc1O",
    "class": 1.0
  },
  {
    "molecule": "CCCCC(CC)COC(=O)c1ccc(N(C)C)cc1 (stereo not given)",
    "class": 1.0
  },
  {
    "molecule": "COc1ccc(C(Cl)=C(c2ccc(OC)cc2)c2ccc(OC)cc2)cc1",
    "class": 1.0
  }
]

Shift focus to the following entry.
Ask: What was the test verdict on C=C[C@H]1CN2CC[C@H]1C[C@@H]2[C@@H](O)c1ccnc2ccc(OC)cc12 ?
Result: 0.0
